Parameter viability, T/C: see the listing below.
System: 556581-035-R-J1-PDC complex spheroid growth
Test Summary: Anticancer human tumor 556581-035-R-J1-PDC patient-derived ovarian carcinoma cell line growth inhibition [Asc]
Reported Conditions: second compound 0.316 µM; first compound 0.0316 µM; stronger effect = lower value

# Compound, viability, T/C / %
measured = [
    ("O=C(c1cc(Cc2n[nH]c(=O)c3ccccc23)ccc1F)N1CCN(C(=O)C2CC2)CC1 + Cc1c(S(C)(=O)=O)c(-c2cc(F)cc(N3CCN(c4ccc(NS(=O)(=O)c5ccc(NC(CCN6CCC(C(=O)OCCCP(=O)(O)O)CC6)CSc6ccccc6)c(S(=O)(=O)C(F)(F)F)c5)cc4)CC3)c2)c(-c2ccc(Cl)cc2)n1C(C)C", 73.6),
    ("C=C(F)C(=O)N1CCN(c2nc(OCC3CCCN3C)nc3c2CCN(c2cccc4cccc(Cl)c24)C3)CC1CC#N (stereo not drawn) + CNC(C)C(=O)NC1CN(S(=O)(=O)c2cccc(S(=O)(=O)N3CCC4CCC(C(=O)NC(c5ccccc5)c5ccccc5)N4C(=O)C(NC(=O)C(C)NC)C3)c2)CCC2CCC(C(=O)NC(c3ccccc3)c3ccccc3)N2C1=O", 78.7),
    ("O=C(c1ccc(F)c(F)c1Nc1ccc(I)cc1F)N1CC(O)([C@@H]2CCCCN2)C1 + Cc1c(S(C)(=O)=O)c(-c2cc(F)cc(N3CCN(c4ccc(NS(=O)(=O)c5ccc(NC(CCN6CCC(C(=O)OCCCP(=O)(O)O)CC6)CSc6ccccc6)c(S(=O)(=O)C(F)(F)F)c5)cc4)CC3)c2)c(-c2ccc(Cl)cc2)n1C(C)C", 61.6),
]

---

Parameter IC50: see the listing below.
Test system: 556581-035-R-J1-PDC complex spheroid growth
Test Summary: Anticancer human tumor 556581-035-R-J1-PDC cell line growth inhibition [Asc];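 note: spheroids exposed to agents for 7 days before viability read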
Reported Conditions: curve of first compound; second compound 3 µM
Assay Endpoint: IC50

# Molecule, Assay Value
records = [
    ("CNC(C)C(=O)NC1CN(S(=O)(=O)c2cccc(S(=O)(=O)N3CCC4CCC(C(=O)NC(c5ccccc5)c5ccccc5)N4C(=O)C(NC(=O)C(C)NC)C3)c2)CCC2CCC(C(=O)NC(c3ccccc3)c3ccccc3)N2C1=O (configuration not stated) + CCN1C(C(=O)NC23CCC(C(=O)O)(CC2)CC3)C(c2cccc(Cl)c2F)C2(C(=O)Nc3cc(Cl)ccc32)C12CCCCC2", "> 1000 nM"),
    ("Cn1ncnc1[C@H]1c2n[nH]c(=O)c3cc(F)cc(c23)N[C@@H]1c1ccc(F)cc1 + CCN1C(C(=O)NC23CCC(C(=O)O)(CC2)CC3)C(c2cccc(Cl)c2F)C2(C(=O)Nc3cc(Cl)ccc32)C12CCCCC2", "> 100 nM"),
    ("NC1CCC(NC2CC2c2ccccc2)CC1 (configuration not stated) + CCN1C(C(=O)NC23CCC(C(=O)O)(CC2)CC3)C(c2cccc(Cl)c2F)C2(C(=O)Nc3cc(Cl)ccc32)C12CCCCC2", "> 100 nM"),
    ("C=CC(=O)N1CCN(c2nc(=O)n(-c3c(C)ccnc3C(C)C)c3nc(-c4c(O)cccc4F)c(F)cc23)C(C)C1 (configuration not stated) + CCN1C(C(=O)NC23CCC(C(=O)O)(CC2)CC3)C(c2cccc(Cl)c2F)C2(C(=O)Nc3cc(Cl)ccc32)C12CCCCC2", "> 10000 nM"),
    ("C#Cc1c(F)ccc2cc(O)cc(-c3ncc4c(N5CC6CCC(C5)N6)nc(OCC56CCCN5CC(F)C6)nc4c3F)c12 (configuration not stated) + CCN1C(C(=O)NC23CCC(C(=O)O)(CC2)CC3)C(c2cccc(Cl)c2F)C2(C(=O)Nc3cc(Cl)ccc32)C12CCCCC2", "> 10000 nM"),
    ("Cc1nc(N2CCC3(CC2)COC(C)C3N)c(CO)nc1Sc1ccnc(N)c1Cl (configuration not stated) + CCN1C(C(=O)NC23CCC(C(=O)O)(CC2)CC3)C(c2cccc(Cl)c2F)C2(C(=O)Nc3cc(Cl)ccc32)C12CCCCC2", "847 nM"),
    ("O=C(c1cc(Cc2n[nH]c(=O)c3ccccc23)ccc1F)N1CCN(C(=O)C2CC2)CC1 + CCN1C(C(=O)NC23CCC(C(=O)O)(CC2)CC3)C(c2cccc(Cl)c2F)C2(C(=O)Nc3cc(Cl)ccc32)C12CCCCC2", "> 10000 nM"),
    ("O=C(c1ccc(F)c(F)c1Nc1ccc(I)cc1F)N1CC(O)([C@@H]2CCCCN2)C1 + CCN1C(C(=O)NC23CCC(C(=O)O)(CC2)CC3)C(c2cccc(Cl)c2F)C2(C(=O)Nc3cc(Cl)ccc32)C12CCCCC2", "92.1 nM"),
    ("CCN1CCN(Cc2ccc(Nc3ncc(F)c(-c4cc(F)c5nc(C)n(C(C)C)c5c4)n3)nc2)CC1 + CCN1C(C(=O)NC23CCC(C(=O)O)(CC2)CC3)C(c2cccc(Cl)c2F)C2(C(=O)Nc3cc(Cl)ccc32)C12CCCCC2", "> 1000 nM"),
    ("COc1c(OCCCN2CCOCC2)ccc2c3n(c(=NC(=O)c4cnc(N)nc4)nc12)CCN3 + CCN1C(C(=O)NC23CCC(C(=O)O)(CC2)CC3)C(c2cccc(Cl)c2F)C2(C(=O)Nc3cc(Cl)ccc32)C12CCCCC2", "33.3 nM"),
    ("C=C(F)C(=O)N1CCN(c2nc(OCC3CCCN3C)nc3c2CCN(c2cccc4cccc(Cl)c24)C3)CC1CC#N (configuration not stated) + CCN1C(C(=O)NC23CCC(C(=O)O)(CC2)CC3)C(c2cccc(Cl)c2F)C2(C(=O)Nc3cc(Cl)ccc32)C12CCCCC2", "2670 nM"),
    ("NC(=O)C(=Cn1cnc(-c2cc(C(F)(F)F)cc(C(F)(F)F)c2)n1)c1cncnc1 + CCN1C(C(=O)NC23CCC(C(=O)O)(CC2)CC3)C(c2cccc(Cl)c2F)C2(C(=O)Nc3cc(Cl)ccc32)C12CCCCC2", "> 300 nM"),
]
